target: SIK2 (Homo sapiens, UniProt Q9H0K1); experiment: SIK2 Enzymatic Assay High Version 2 (High ATP); assay type: biochemical
Sequence (Q9H0K1 whole entry, species assumed): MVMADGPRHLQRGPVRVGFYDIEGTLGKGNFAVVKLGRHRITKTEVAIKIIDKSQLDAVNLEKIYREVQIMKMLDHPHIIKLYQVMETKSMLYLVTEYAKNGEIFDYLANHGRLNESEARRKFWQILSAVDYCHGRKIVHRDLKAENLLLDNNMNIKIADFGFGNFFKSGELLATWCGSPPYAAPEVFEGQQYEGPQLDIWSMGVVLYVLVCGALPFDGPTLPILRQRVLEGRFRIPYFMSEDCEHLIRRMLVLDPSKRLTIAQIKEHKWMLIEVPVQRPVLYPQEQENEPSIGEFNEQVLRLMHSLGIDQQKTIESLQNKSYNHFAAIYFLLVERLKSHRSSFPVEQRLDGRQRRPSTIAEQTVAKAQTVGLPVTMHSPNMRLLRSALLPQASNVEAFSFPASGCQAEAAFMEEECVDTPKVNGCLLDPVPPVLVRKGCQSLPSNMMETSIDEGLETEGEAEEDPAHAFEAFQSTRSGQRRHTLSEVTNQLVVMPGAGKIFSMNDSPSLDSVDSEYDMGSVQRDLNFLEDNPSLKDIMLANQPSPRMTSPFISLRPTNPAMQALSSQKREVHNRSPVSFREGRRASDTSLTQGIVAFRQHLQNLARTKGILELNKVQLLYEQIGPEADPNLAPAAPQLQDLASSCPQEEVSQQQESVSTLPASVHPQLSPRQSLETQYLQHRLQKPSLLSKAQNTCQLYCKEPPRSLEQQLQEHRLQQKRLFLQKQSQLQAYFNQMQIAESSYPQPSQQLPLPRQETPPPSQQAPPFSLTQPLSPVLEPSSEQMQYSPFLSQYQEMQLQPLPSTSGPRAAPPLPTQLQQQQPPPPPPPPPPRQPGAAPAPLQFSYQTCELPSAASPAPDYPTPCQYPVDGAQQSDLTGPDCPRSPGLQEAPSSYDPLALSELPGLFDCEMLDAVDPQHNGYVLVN
pIC50: −log10 of the molar value.
Quick reference: pIC50 of the listed items.

{"MOLECULE": "Cc1cc(-c2ccn3nc(Nc4ccc(C(=O)NCC(C)(C)O)cn4)cc3c2)c(O[C@H]2C[C@H]3COC[C@@H](C2)N3)cn1", "INEQUALITY_OPERATOR": ">", "pIC50": 9.07}
{"MOLECULE": "N#Cc1cc(-c2ccn3nc(NC(=O)C4CC4)cc3c2)c(OC2C[C@H]3COC[C@@H](C2)N3)cn1 (some centres unmarked)", "INEQUALITY_OPERATOR": ">", "pIC50": 9.08}
{"MOLECULE": "Cc1cc(-c2ccn3nc(Nc4cn(C)nc4C(O)C(F)(F)F)cc3c2)c(O[C@H]2C[C@H]3COC[C@@H](C2)N3C)cn1 (some centres unmarked)", "INEQUALITY_OPERATOR": ">", "pIC50": 9.07}
{"MOLECULE": "Cc1cc(-c2ccn3nc(Nc4cc(C)nc(C)n4)cc3c2)c(OC[C@H]2CC[C@@H](O)CO2)cn1 (single isomer, unassigned)", "INEQUALITY_OPERATOR": "=", "pIC50": 7.21}
{"MOLECULE": "CN1CCC(Oc2cnc(C#N)cc2-c2ccn3nc(NC(=O)C4CC4)cc3c2)CC1", "INEQUALITY_OPERATOR": "=", "pIC50": 7.29}
{"MOLECULE": "Cc1cc(-c2ccn3nc(Nc4cn(C)nn4)cc3c2)c(O[C@H]2C[C@H]3COC[C@@H](C2)N3C)cn1", "INEQUALITY_OPERATOR": "=", "pIC50": 7.82}
{"MOLECULE": "N#Cc1cc(-c2ccn3nc(NC(=O)C4CC4)cc3c2)c(OC[C@H](O)C(F)(F)F)cn1", "INEQUALITY_OPERATOR": "=", "pIC50": 6.94}
{"MOLECULE": "Cc1cc(-c2ccn3nc(Nc4cnccn4)cc3c2)c(O[C@H]2C[C@H]3COC[C@@H](C2)N3)cn1", "INEQUALITY_OPERATOR": "=", "pIC50": 8.97}
{"MOLECULE": "Cc1cc(-c2ccn3nc(Nc4ccc(C(=O)NC5CCOCC5)cn4)cc3c2)c(O[C@H]2C[C@H]3COC[C@@H](C2)N3)cn1", "INEQUALITY_OPERATOR": "=", "pIC50": 8.99}
{"MOLECULE": "CC#Cc1cc(-c2ccn3nc(NC(=O)C4CC4)cc3c2)c(O[C@H]2CC[C@H](O)CC2)cn1", "INEQUALITY_OPERATOR": ">", "pIC50": 9.08}
{"MOLECULE": "CC(=O)N1CCC(COc2cnc(C#N)cc2-c2ccn3nc(NC(=O)C4CC4)cc3c2)CC1", "INEQUALITY_OPERATOR": "=", "pIC50": 7.01}
{"MOLECULE": "Cc1cc(-c2ccn3nc(NC(=O)C4CC4)cc3c2)c(OC[C@H](N)C(C)(C)C)cn1", "INEQUALITY_OPERATOR": "=", "pIC50": 6.49}
{"MOLECULE": "C[C@H](O)COc1cnc(C#N)cc1-c1ccn2nc(NC(=O)C3CC3)cc2c1", "INEQUALITY_OPERATOR": "=", "pIC50": 7.10}
{"MOLECULE": "Cc1cc(-c2ccn3nc(NC(=O)C4CC4)cc3c2)c(O[C@H]2C[C@H]3COC[C@@H](C2)N3)cn1", "INEQUALITY_OPERATOR": ">", "pIC50": 9.08}
